Hi there, I'd appreciate the recorded Ki for every entry that follows.
EXPERIMENT SUMMARY: Displacement of [3H]prazosin from adrenergic alpha1 receptor in porcine cortical membranes
Format: cell membranes, Sus scrofa
Give bare numbers, in µM.

Reference set, count: 3
# MOLECULE SMILES, Ki, µM
rows = [
    ("COc1cc(CN2CCN(c3ccc4c(c3)OCCO4)CC2)ccc1F", 3.3),
    ("Fc1ccc(CN2CCN(c3ccc4c(c3)OCCO4)CC2)cc1", 4),
    ("Fc1ccc(CN2CCN(c3ccc4c(c3)OCCO4)CC2)cn1", 11),
]

Okay, next one:
Ask | Which Ki value is on record for `Oc1cc(CN2CCN(c3ccc4c(c3)OCCO4)CC2)ccc1F` ?
Reply | 3

---

EXPERIMENTAL SYSTEM: D(2) dopamine receptor (Homo sapiens)
Sequence (P14416 whole entry): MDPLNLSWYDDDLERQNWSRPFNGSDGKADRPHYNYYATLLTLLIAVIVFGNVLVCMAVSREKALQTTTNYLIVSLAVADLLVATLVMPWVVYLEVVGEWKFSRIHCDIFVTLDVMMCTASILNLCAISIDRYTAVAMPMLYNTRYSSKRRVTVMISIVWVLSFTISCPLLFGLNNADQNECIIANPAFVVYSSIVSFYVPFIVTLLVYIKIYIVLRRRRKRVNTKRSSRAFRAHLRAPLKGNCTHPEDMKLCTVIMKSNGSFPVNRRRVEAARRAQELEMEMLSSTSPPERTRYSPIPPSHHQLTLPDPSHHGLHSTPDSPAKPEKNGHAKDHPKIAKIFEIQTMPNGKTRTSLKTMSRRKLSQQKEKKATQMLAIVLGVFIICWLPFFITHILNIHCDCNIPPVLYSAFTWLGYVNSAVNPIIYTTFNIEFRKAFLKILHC
EXPERIMENT SUMMARY: Displacement of [3H]spiperone from human dopamine D2short receptor expressed in CHO cells
Type: cell-based
Hi there, I'd appreciate the recorded Ki for every entry that follows.
Answers are plain numbers, in µM.

Reference set, count: 3
# MOLECULE SMILES, MEASURED RESULT
records = [
    ("COc1cc(CN2CCN(c3ccc4c(c3)OCCO4)CC2)ccc1F", 16),
    ("Fc1ccc(CN2CCN(c3ccc4c(c3)OCCO4)CC2)cn1", 45),
    ("Oc1cc(CN2CCN(c3ccc4c(c3)OCCO4)CC2)ccc1F", 6.1),
]

Okay, next one:
Ask | Which Ki value is on record for `Fc1ccc(CN2CCN(c3ccc4c(c3)OCCO4)CC2)cc1` ?
Reply | 5.7

---

EXPERIMENT SUMMARY: Chemical stability of the compound on silica gel on TLC plate assessed as half life
Format: physicochemical
QUANTITY KIND: half-life (min)
Give bare numbers, in min.

Ask | Which half-life value is on record for `[18F]c1ccc(CN2CCN(c3ccc4c(c3)OCCO4)CC2)cn1` ?
Reply | 15

---

EXPERIMENT SUMMARY: Chemical stability of the compound on […] oxide gel on TLC plate assessed as half life
Type: physicochemical
QUANTITY KIND: half-life (min)
Answers are plain numbers, in min.

Ask | Which half-life value is on record for `[18F]c1ccc(CN2CCN(c3ccc4c(c3)OCCO4)CC2)cn1` ?
Reply | 50

---

Hi there, I'd appreciate the recorded pKi for every entry that follows.
EXPERIMENT SUMMARY: Displacement of [3H]WAY100635 from 5-HT1A receptor in porcine cortical membranes
One number for each entry, as −log10 of the molar value.

# MOLECULE SMILES, pKi
rows = [
    ("Fc1ccc(CN2CCN(c3ccc4c(c3)OCCO4)CC2)cc1", 5.28),
]

Provide pKi for all items below, preserving their order.
1. Oc1cc(CN2CCN(c3ccc4c(c3)OCCO4)CC2)ccc1F
2. COc1cc(CN2CCN(c3ccc4c(c3)OCCO4)CC2)ccc1F
3. Fc1ccc(CN2CCN(c3ccc4c(c3)OCCO4)CC2)cn1

Reply |
1. 5.21
2. 5.25
3. 4.68

---

These compounds were tested on UniProtKB P35462; Ki is the recorded read-out.
Sequence (P35462 whole entry): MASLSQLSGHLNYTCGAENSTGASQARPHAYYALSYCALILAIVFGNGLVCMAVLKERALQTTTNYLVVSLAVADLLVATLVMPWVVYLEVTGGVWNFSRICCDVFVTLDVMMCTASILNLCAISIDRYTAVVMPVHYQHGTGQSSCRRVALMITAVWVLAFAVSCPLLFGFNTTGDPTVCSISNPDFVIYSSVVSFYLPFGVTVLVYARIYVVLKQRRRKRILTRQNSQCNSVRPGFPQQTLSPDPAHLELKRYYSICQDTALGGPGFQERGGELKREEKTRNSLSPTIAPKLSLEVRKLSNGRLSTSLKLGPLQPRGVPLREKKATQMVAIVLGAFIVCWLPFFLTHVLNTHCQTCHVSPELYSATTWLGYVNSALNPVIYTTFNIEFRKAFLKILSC
Phrase the answer as number then unit, nothing more needed.

# MOLECULE SMILES, Ki
measured = [
    ("Fc1ccc(CN2CCN(c3ccc4c(c3)OCCO4)CC2)cc1", "3.9 µM"),
]

Okay, next one:
Ask | Which Ki value is on record for `Fc1ccc(CN2CCN(c3ccc4c(c3)OCCO4)CC2)cn1` ?
Reply | 17 µM
